Each record here notes measured pKd.
Target: T1, streptavidin (UniProt P22629 37-163, limits assumed)
T1 construct: It was used without a stated label in the sandwich assays; also called SA
T1 sequence (P22629 37-163 limits assumed): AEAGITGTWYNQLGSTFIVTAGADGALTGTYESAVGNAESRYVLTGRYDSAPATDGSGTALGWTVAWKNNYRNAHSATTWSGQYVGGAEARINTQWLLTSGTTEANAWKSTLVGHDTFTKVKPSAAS
Assay: apparent Kd (Kd,app); fluorescent binding curve, labeled SA in PBS, 4 h exposure; quadratic fit
pKd: −log10 of the molar value.

[
  {
    "BINDER": "3xSP77.6k thin film (3x rcSso7d.SA-PNIPAM conjugate, PNIPAM Mn 77.6 kDa) (designed binder, maleimide end-functionalized PNIPAM (Mn 77.6 kDa) on the N-terminal Cys; film lightly crosslinked with glutaraldehyde) MGSSHHHHHHSSGLVPRGSHMCATVKFTYQGEEKQVDISKIKIVARDGQYIDFKYDEGGGAYGYGWVSEKDAPKELLQMLEKQGGGGSGGGGSMATVKFTYQGEEKQVDISKIKIVARDGQYIDFKYDEGGGAYGYGWVSEKDAPKELLQMLEKQGGGGSGGGGSMATVKFTYQGEEKQVDISKIKIVARDGQYIDFKYDEGGGAYGYGWVSEKDAPKELLQMLEKQGG",
    "pKd": 4.77
  },
  {
    "BINDER": "3xSP9.6k thin film (3x rcSso7d.SA-PNIPAM conjugate, PNIPAM Mn 9.6 kDa) (designed binder, maleimide end-functionalized PNIPAM (Mn 9.6 kDa) on the N-terminal Cys; film lightly crosslinked with glutaraldehyde) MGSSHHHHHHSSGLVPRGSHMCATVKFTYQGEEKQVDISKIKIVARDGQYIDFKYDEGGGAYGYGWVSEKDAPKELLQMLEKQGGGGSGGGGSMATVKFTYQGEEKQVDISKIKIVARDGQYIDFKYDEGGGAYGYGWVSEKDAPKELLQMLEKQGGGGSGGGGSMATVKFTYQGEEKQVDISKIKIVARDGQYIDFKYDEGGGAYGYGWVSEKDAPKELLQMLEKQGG",
    "pKd": 4.40
  },
  {
    "BINDER": "rcSso7d.SA monolayer (designed binder, EDC/NHS-activated protein coupled to an amine-functionalized silicon wafer, also called monomeric rcSso7d.SA; surface-immobilized rcSso7d.SA) MGSIHHHHHHSSGLVPRGSHMCATVKFTYQGEEKQVDISKIKIVARDGQYIDFKYDEGGGAYGYGWVSEKDAPKELLQMLEKQ",
    "pKd": 5.10
  }
]
